ASSAYED_SYSTEM: Leukotriene A-4 hydrolase (Homo sapiens, UniProt P09960)
Sequence (P09960 whole entry): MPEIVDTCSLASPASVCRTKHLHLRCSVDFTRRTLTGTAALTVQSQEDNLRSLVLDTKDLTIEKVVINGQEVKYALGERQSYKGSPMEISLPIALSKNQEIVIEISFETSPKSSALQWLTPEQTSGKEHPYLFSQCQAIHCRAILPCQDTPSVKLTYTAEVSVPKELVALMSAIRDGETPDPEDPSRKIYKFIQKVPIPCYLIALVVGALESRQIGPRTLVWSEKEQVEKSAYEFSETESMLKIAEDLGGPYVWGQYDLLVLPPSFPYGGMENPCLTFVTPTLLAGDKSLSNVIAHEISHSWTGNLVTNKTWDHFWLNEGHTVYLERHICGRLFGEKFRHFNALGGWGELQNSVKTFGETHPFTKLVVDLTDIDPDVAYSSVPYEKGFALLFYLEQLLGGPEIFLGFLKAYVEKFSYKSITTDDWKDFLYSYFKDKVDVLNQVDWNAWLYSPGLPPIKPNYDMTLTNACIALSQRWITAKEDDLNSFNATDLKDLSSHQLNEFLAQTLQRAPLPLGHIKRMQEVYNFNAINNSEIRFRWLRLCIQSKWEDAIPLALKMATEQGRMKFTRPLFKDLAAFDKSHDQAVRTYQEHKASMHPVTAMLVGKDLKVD
ASSAY: Inhibition of human recombinant LTA4 hydrolase expressed in SF9 cells using LTA4 as substrate assessed as LTB4 production incubated for 10 mins prior to substrate addition measured after 10 to 30 mins by enzyme immunoassay
Here, each record is paired with measured IC50 data.
Field: numeric (nM). Do not append units.

Some molecules with recorded IC50:
>  <MOLECULE>
O=C1CCCN1C1CCN(CCc2ccc(Oc3nc4ncccc4s3)cc2)CC1

>  <IC50 [nM]>
14

$$$$
>  <MOLECULE>
CC(=O)NC1CC2CCC(C1)N2CCOc1ccc(Oc2nc3ncccc3s2)cc1 (stereo not drawn)

>  <IC50 [nM]>
4

$$$$
>  <MOLECULE>
CC(=O)NC1CC2CCC(C1)N2CCc1ccc(Oc2nc3ncccc3s2)cc1 (stereo not drawn)

>  <IC50 [nM]>
0.3

$$$$
>  <MOLECULE>
c1cc2nc(Oc3ccc(CN4CCCCC4)cc3)sc2cn1

>  <IC50 [nM]>
614

$$$$
>  <MOLECULE>
NC(=O)C1CCN(Cc2ccc(Oc3nc4ncccc4s3)cc2)CC1

>  <IC50 [nM]>
6

$$$$

[Q] Identify measured IC50 associated with NC(=O)C1CCN(CCc2ccc(Oc3nc4ncccc4s3)cc2)CC1
[A] 11

[Q] Identify measured IC50 associated with O=C1CCCN1C1CCN(Cc2ccc(Oc3nc4ncccc4s3)cc2)CC1
[A] 6

[Q] Identify measured IC50 associated with c1cnc2nc(Oc3ccc(CN4CCCCC4)cc3)sc2c1
[A] 3

###

ASSAYED_SYSTEM: Leukotriene A-4 hydrolase (Homo sapiens, UniProt P09960)
ASSAY: Inhibition of human recombinant LTA4 hydrolase expressed in SF9 cells using LTA4 as substrate assessed as LTB4 production incubated for 10 mins prior to substrate addition measured after 10 to 30 mins by enzyme immunoassay
The class of a record is decided solely by its measured IC50; consult c1 = under 6 nM, c2 = from 6 nM up to 10 nM, c3 = 10 nM and over

# count of solved cases: 3
>  <COMPOUND>
c1cnc2nc(Oc3ccc(OCCN4CCCCC4)cc3)sc2c1

>  <ASSAYED_SYSTEM>
Leukotriene A-4 hydrolase (Homo sapiens, UniProt P09960)

>  <CLASSIFICATION>
c2

$$$$
>  <COMPOUND>
NC(=O)C1CCN(CCOc2ccc(Oc3nc4ncccc4s3)cc2)CC1

>  <ASSAYED_SYSTEM>
Leukotriene A-4 hydrolase (Homo sapiens, UniProt P09960)

>  <CLASSIFICATION>
c3

$$$$
>  <COMPOUND>
CC(=O)N1CC2CC1CN2CCc1ccc(Oc2nc3ncccc3s2)cc1 (stereo unspecified)

>  <ASSAYED_SYSTEM>
Leukotriene A-4 hydrolase (Homo sapiens, UniProt P09960)

>  <CLASSIFICATION>
c3

$$$$

[Q] Given NC(=O)C1CCN(Cc2ccc(Oc3nc4cccnc4s3)cc2)CC1 , name the class its IC50 places it in.
[A] c3

[Q] Given CC(=O)NC1CC2CCC(C1)N2Cc1ccc(Oc2nc3ncccc3s2)cc1 (stereo unspecified) , name the class its IC50 places it in.
[A] c1

[Q] Given c1cc2sc(Oc3ccc(CN4CCCCC4)cc3)nc2cn1 , name the class its IC50 places it in.
[A] c3

[Q] Given CC(=O)N1CC2CN(CCOc3ccc(Oc4nc5ncccc5s4)cc3)CC2C1 (stereo unspecified) , name the class its IC50 places it in.
[A] c2

[Q] Given CC(=O)N1CC2CC1CN2Cc1ccc(Oc2nc3ncccc3s2)cc1 (stereo unspecified) , name the class its IC50 places it in.
[A] c1

[Q] Given CC(=O)N1CC2CC1CN2CCOc1ccc(Oc2nc3ncccc3s2)cc1 (stereo unspecified) , name the class its IC50 places it in.
[A] c2
